Target: T1, human IL-25 expressed with a C-terminal myc-myc-hexahistidine tag (human)
T1 construct: also called hIL-25-MMH; Human IL-25-MMH
T1 chain: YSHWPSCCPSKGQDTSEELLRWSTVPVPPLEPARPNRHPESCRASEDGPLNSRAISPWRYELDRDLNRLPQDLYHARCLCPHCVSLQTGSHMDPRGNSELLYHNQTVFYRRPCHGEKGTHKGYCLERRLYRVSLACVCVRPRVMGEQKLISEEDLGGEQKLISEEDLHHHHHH
Experiment: competition ELISA, 2 nM hIL-25-MMH binding to coated hIL-17RB-hFc
measure_name: % Maximum blocking of 200 nM antibody (%)
Answer with a number only, understood to be in %.

- binder: "H4H10901P (antibody, human IgG4, V domains shown, H4H prefix = human IgG4 Fc) VH: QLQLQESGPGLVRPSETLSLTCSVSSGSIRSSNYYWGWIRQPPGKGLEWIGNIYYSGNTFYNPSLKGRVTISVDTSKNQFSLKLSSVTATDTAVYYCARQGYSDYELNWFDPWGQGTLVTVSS VL: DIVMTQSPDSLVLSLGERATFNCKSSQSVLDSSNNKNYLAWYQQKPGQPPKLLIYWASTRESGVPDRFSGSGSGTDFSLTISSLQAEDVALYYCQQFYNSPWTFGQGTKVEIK"
  data_value: 91

### Prompt Form field: reported % Maximum blocking of 200 nM antibody of H4H10863P (antibody, human IgG4, V domains shown, H4H prefix = human IgG4 Fc) VH: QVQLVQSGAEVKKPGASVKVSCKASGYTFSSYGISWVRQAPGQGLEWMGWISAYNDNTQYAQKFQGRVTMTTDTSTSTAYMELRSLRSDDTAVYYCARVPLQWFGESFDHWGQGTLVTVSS VL: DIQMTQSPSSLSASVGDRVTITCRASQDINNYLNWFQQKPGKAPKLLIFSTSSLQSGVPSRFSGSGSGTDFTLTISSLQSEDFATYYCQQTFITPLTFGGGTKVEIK
### Response 87

### Prompt Form field: reported % Maximum blocking of 200 nM antibody of H4H10883P (antibody, human IgG4, V domains shown, H4H prefix = human IgG4 Fc) VH: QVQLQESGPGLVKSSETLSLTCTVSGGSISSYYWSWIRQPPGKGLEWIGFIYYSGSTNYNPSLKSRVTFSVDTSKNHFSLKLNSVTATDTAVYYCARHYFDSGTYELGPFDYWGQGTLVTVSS VL: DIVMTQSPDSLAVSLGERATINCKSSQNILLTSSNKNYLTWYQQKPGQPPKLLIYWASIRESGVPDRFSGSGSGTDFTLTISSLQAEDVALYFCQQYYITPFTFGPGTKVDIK
### Response 93
